Reference source: ChEMBL document CHEMBL1128505

# test target: D(2) dopamine receptor (Rattus norvegicus)
# test protocol: Effect on DOPA accumulation in limbic and striatal regions of reserpine-pretreated rat brains.
# Format: functional, tissue-based
# condition context: Brain
reported property: DOPA accumulation
Number only, please.

As a guide, the following entries are already answered.
What value of measured DOPA accumulation is listed for CCCN1CCC[C@@H](c2cccc(C#N)c2)C1 ?
105

What value of measured DOPA accumulation is listed for CCCN1CCC[C@@H](c2cccc(OC)c2)C1 ?
66

What value of measured DOPA accumulation is listed for CCCN1CCC[C@@H](c2cccc(Br)c2)C1 ?
101

What value of measured DOPA accumulation is listed for CCCN1CCC[C@@H](c2cccc(CO)c2)C1 ?
50

What value of measured DOPA accumulation is listed for CCCc1cccc([C@@H]2CCCN(CCC)C2)c1 ?
62

---
What value of measured DOPA accumulation is listed for CCCN1CCC[C@@H](c2cccc(OS(C)(=O)=O)c2)C1 ?
92

What value of measured DOPA accumulation is listed for CCCN1CCC[C@@H](c2cccc(C=O)c2)C1 ?
83
